Biological target: T1, recombinant human LAG3 expressed with a C-terminal mouse IgG2a mFc tag (human)
T1 construct: Called dimeric; also called hLAG3-mFc; hLAG3 dimer
T1 chain: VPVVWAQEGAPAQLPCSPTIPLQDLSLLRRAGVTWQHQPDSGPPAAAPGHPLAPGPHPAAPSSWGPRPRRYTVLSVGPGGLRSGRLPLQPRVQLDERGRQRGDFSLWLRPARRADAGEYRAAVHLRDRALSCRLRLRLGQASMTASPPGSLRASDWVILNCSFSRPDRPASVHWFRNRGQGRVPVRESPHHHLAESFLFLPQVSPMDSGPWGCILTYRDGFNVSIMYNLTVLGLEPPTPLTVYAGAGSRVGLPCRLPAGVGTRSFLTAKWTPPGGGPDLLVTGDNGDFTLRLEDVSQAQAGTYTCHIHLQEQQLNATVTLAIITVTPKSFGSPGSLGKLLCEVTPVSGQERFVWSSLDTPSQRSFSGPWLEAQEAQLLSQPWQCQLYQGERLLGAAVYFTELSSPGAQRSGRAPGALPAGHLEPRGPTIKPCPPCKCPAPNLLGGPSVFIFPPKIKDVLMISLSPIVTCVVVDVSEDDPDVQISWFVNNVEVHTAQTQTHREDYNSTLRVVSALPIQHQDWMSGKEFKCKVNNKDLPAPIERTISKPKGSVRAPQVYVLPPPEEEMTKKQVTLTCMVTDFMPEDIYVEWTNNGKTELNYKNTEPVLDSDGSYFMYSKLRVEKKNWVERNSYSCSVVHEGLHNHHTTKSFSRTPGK
Test: SPR, mAb captured, 25 C
pKd: −log10 of the molar value.
List of pKd values.

binder: H4H17823P (antibody, human IgG4, V domains shown, H4H = human IgG4 Fc with S108P hinge mutation) VH: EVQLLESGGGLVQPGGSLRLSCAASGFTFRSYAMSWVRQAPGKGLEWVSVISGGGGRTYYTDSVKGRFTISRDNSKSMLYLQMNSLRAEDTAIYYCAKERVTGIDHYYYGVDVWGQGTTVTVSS VL: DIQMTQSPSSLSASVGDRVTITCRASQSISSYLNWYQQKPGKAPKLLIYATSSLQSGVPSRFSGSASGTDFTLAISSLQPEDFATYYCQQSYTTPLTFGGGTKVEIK
value_operator: =
pKd: 9.76

binder: H4H14813N (antibody, human IgG4, V domains shown, H4H = human IgG4 Fc with S108P hinge mutation) VH: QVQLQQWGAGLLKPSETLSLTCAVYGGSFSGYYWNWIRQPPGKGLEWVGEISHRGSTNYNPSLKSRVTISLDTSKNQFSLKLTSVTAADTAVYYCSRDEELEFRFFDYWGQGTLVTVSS VL: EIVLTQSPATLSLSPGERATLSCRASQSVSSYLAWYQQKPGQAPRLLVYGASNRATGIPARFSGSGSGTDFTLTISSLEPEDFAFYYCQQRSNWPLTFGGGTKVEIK
value_operator: ≥
pKd: 10.98

binder: H4H17819P (antibody, human IgG4, V domains shown, H4H = human IgG4 Fc with S108P hinge mutation) VH: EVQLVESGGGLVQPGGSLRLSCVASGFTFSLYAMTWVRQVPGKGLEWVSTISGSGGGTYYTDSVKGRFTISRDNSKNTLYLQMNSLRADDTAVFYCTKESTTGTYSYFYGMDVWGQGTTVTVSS VL: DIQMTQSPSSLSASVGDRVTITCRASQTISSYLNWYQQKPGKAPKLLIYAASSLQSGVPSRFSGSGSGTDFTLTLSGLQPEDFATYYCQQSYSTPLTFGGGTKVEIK
value_operator: =
pKd: 9.91

binder: H4H15479P (antibody, human IgG4, V domains shown) VH: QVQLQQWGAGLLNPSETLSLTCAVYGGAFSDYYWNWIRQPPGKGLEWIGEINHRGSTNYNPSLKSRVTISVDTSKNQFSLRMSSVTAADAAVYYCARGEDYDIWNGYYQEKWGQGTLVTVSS VL: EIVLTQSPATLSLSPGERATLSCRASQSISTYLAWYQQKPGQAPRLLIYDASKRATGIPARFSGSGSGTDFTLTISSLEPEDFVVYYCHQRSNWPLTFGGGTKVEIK
value_operator: ≥
pKd: 11.36
